# test target: T1, TNFR1 (Homo sapiens, UniProt P19438)
# T1 chain: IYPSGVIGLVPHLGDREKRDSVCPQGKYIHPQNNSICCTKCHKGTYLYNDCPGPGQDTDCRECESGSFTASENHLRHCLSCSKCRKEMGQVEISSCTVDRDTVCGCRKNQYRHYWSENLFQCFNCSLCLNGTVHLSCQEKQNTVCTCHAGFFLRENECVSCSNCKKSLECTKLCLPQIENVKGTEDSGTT
# assay explanation: yeast display SC50
attribute measured: apparent Kd (screen) (nM)
Could you give me the number in nM? Just the number is fine.

• L79I (designed binder) SMEEEVEKAAKEYEKKKKEAIEKHLEKLKAKDKEAAERFLKELEEAAKEYAKDEAKTMSEEEAKRRAKKYKEKVLLSEISEEEQKEIKEAEEKLVRTILKYVEEAAK = 1.86
• E60D (designed binder) SMEEEVEKAAKEYEKKKKEAIEKHLEKLKAKDKEAAERFLKELEEAAKEYAKDEAKTMSDEEAKRRAKKYKEKVLLSELSEEEQKEIKEAEEKLVRTILKYVEEAAK = 1.27

Query :: Sample E89N (designed binder) SMEEEVEKAAKEYEKKKKEAIEKHLEKLKAKDKEAAERFLKELEEAAKEYAKDEAKTMSEEEAKRRAKKYKEKVLLSELSEEEQKEIKNAEEKLVRTILKYVEEAAK — what was its apparent Kd (screen)?
Result :: 0.956

Query :: Sample L94Q (designed binder) SMEEEVEKAAKEYEKKKKEAIEKHLEKLKAKDKEAAERFLKELEEAAKEYAKDEAKTMSEEEAKRRAKKYKEKVLLSELSEEEQKEIKEAEEKQVRTILKYVEEAAK — what was its apparent Kd (screen)?
Result :: 1.16

Query :: Sample K15L (designed binder) SMEEEVEKAAKEYELKKKEAIEKHLEKLKAKDKEAAERFLKELEEAAKEYAKDEAKTMSEEEAKRRAKKYKEKVLLSELSEEEQKEIKEAEEKLVRTILKYVEEAAK — what was its apparent Kd (screen)?
Result :: 0.49

Query :: Sample E82V (designed binder) SMEEEVEKAAKEYEKKKKEAIEKHLEKLKAKDKEAAERFLKELEEAAKEYAKDEAKTMSEEEAKRRAKKYKEKVLLSELSEVEQKEIKEAEEKLVRTILKYVEEAAK — what was its apparent Kd (screen)?
Result :: 0.539

Query :: Sample E62V (designed binder) SMEEEVEKAAKEYEKKKKEAIEKHLEKLKAKDKEAAERFLKELEEAAKEYAKDEAKTMSEEVAKRRAKKYKEKVLLSELSEEEQKEIKEAEEKLVRTILKYVEEAAK — what was its apparent Kd (screen)?
Result :: 2.73

Query :: Sample E7A (designed binder) SMEEEVAKAAKEYEKKKKEAIEKHLEKLKAKDKEAAERFLKELEEAAKEYAKDEAKTMSEEEAKRRAKKYKEKVLLSELSEEEQKEIKEAEEKLVRTILKYVEEAAK — what was its apparent Kd (screen)?
Result :: 3.63
